system: PGE2 production in SW982 cells; experiment: TNF induced PGE2 production in SW982 cells (EIA/ELISA); format: cell-based; conditions: SW982 cells, FIG. 3; read-out: IC50 for inhibition of TNF induced PGE2 production
REPORTED PROPERTY: IC50

> print(dat)
                                   compound              measurement.target   result
1  CC/C=C\C/C=C\C/C=C\C/C=C\C/C=C\CCSCC(=O)C(F)(F)F [Compound 2]  PGE2 production in SW982 cells  ~430 nM

----------
tested on: arachidonic acid (AA) release in SW982 cells; assay: TNF-induced arachidonic acid (AA) release in SW982 cells; assay type: cell-based; settings: TNF 10 ng/ml, inhibitor pre-treatment, read-out: IC50 for reduction of TNF-induced release of AA
REPORTED PROPERTY: IC50

> print(dat)
                                test.smiles  reported.property    result
1  CC/C=C\C/C=C\C/C=C\C/C=C\C/C=C\CCSCC(=O)C(F)(F)F               IC50  ~1000 nM
